Values from PubChem BioAssay (NCI)

Would you mind telling me the reported TGI of each entry?
Test system: K-562 leukemia
METHOD: NCI tumour cell line growth inhibition, 48 h

Answered cases to consult:
1) O=c1[nH]nc(-c2ccccc2)n1/N=C/c1ccccc1Cl
> 100 µM
2) OCc1cc2ccncc2c2c1[nH]c1ccccc12
> 100 µM
3) CCCCCCCCCCCCCCCCOP(=O)(O)OCC(NC(C)=O)C(=O)O (stereo not given)
> 100 µM
4) O=[N+]([O-])c1cc(C(F)(F)F)ccc1Sc1ccc(C(F)(F)F)cc1[N+](=O)[O-]
> 100 µM
5) O=C1C2CCN(CC2)C1(CO)CO
54.5 µM

List reported TGI for each of these compounds:
1. CCCN(CCC)c1ccc(/C=N/NC(=O)c2cccnc2)c(OC)c1
2. Oc1cc(N2CCCC2)ccc1/C=N/N1C(=S)N(c2ccccc2)C(=Nc2ccccc2)C1=Nc1ccccc1
3. CC1(c2ccc(Cl)s2)CC(c2ccc(Cl)s2)=C(C#N)C(=C(C#N)C#N)N1 (stereo not given)
4. CCOC(=O)C1=C(C)N(Cc2ccc(Cl)cc2Cl)C2(O)C=CC(=O)C3=C(O)c4ccccc4C(=O)C312 (stereo not given)
5. CC(NC(=O)c1ccc(NP(=O)(OCc2ccc([N+](=O)[O-])o2)N(C)CCCCCl)cc1)c1ccc(OCC2CCCCC2)c(C(N)=O)c1 (stereo not given)

## Output
["> 100 µM", "> 100 µM", "> 100 µM", "> 100 µM", "83.2 µM"]
